- System: Cabbage Looper (Trichoplusia ni, TRIPNI)
- Assay Remarks: Bioassays on Cabbage Looper (CL), 128-well diet tray assay
- Type: in vivo
- Condition Info: Trichoplusia ni; Cabbage Looper; rating class; read-out: CL
Quantity: pest or weed control at 50 µg/cm2

Task item: Respond only with pest or weed control at 50 µg/cm2 recorded for O=C(Nc1ccc(F)c(NC(=O)C2CCOC2)c1F)c1cc(NC(=O)[C@H]2[C@H](c3ccc(Cl)c(Cl)c3)C2(Cl)Cl)ccc1Cl (stereo partly shown)
Reply: 50 to 100%

Task item: Supply recorded pest or weed control at 50 µg/cm2 for Cc1cc(NC(=O)[C@H]2[C@H](c3ccc(Cl)c(Cl)c3)C2(Cl)Cl)cc(C(=O)Nc2cc(NC(=O)C(F)F)c(F)cc2F)c1Cl here.
Reply: 50 to 100%

Task item: Using the record for O=C(Nc1c(F)ccc(NC(=O)C(F)F)c1F)c1cc(NC(=O)[C@H]2[C@H](c3ccc(Cl)c(Cl)c3)C2(Cl)Cl)cc(F)c1F , state its measured pest or weed control at 50 µg/cm2.
Reply: 50 to 100%

Task item: Output pest or weed control at 50 µg/cm2 of O=C(Nc1c(F)ccc(NC(=O)c2cc(NC(=O)[C@H]3[C@H](c4ccc(Cl)c(Cl)c4)C3(Cl)Cl)ccc2Cl)c1F)c1ccno1
Reply: 50 to 100%

Task item: State, in one line, measured pest or weed control at 50 µg/cm2 of CC(=O)Nc1c(F)ccc(NC(=O)c2cc(NC(=O)[C@H]3[C@H](c4ccc(F)c(Cl)c4)C3(Cl)Cl)ccc2Cl)c1F
Reply: 50 to 100%

Task item: Output measured pest or weed control at 50 µg/cm2 for this item: CC(=O)Nc1cc(NC(=O)c2cc(NC(=O)[C@H]3[C@H](c4ccc(F)c(C(F)(F)F)c4)C3(Cl)Cl)ccc2Cl)c(F)c(F)c1F
Reply: 50 to 100%

Task item: Let me know recorded pest or weed control at 50 µg/cm2 for O=C(Nc1ccc(F)c(NC(=O)C(F)F)c1F)c1cc(NC(=O)[C@H]2[C@H](c3cc(Cl)c(Cl)c(Cl)c3)C2(Cl)Cl)ccc1F , thanks.
Reply: 50 to 100%

Task item: Specify measured pest or weed control at 50 µg/cm2 for CCC(=O)Nc1c(F)ccc(NC(=O)c2cc(NC(=O)[C@H]3[C@H](c4ccc(F)c(Cl)c4)C3(Cl)Cl)ccc2Cl)c1F .
Reply: 50 to 100%

Task item: Tell us which pest or weed control at 50 µg/cm2 value is on record for CC(=O)Nc1cc(NC(=O)c2cc(NC(=O)[C@H]3[C@H](c4ccc(F)c(C(F)(F)F)c4)C3(Cl)Cl)cc(F)c2F)c(F)cc1F
Reply: 50 to 100%

Task item: Could you please provide reported pest or weed control at 50 µg/cm2 for Cc1cc(NC(=O)[C@H]2[C@H](c3ccc(Cl)c(Cl)c3)C2(Cl)Cl)cc(C(=O)Nc2c(F)ccc(NC(=O)C(F)F)c2F)c1Cl ? Thanks!
Reply: 50 to 100%

Task item: For the compound O=C(Nc1ccc(F)c(NC(=O)C(C(F)(F)F)C(F)(F)F)c1F)c1cc(NC(=O)[C@H]2[C@H](c3ccc(Cl)c(Cl)c3)C2(Cl)Cl)ccc1Cl , give its reported pest or weed control at 50 µg/cm2.
Reply: 50 to 100%

Task item: # return recorded pest or weed control at 50 µg/cm2 for entry O=C(Nc1ccc(F)c(NC(=O)C(F)(F)C(F)F)c1F)c1cc(NC(=O)[C@H]2[C@H](c3ccc(F)c(Br)c3)C2(Cl)Cl)ccc1Cl
Reply: 50 to 100%

Task item: Name the recorded pest or weed control at 50 µg/cm2 of the item O=C(Nc1ccc(F)c(NC(=O)C(F)F)c1F)c1cc(NC(=O)[C@H]2[C@H](c3cc(Cl)c(Cl)c(Br)c3)C2(Cl)Cl)ccc1Cl (relative stereo) in your answer.
Reply: 50 to 100%
